// provenance: patent US11117898B2

- assayed system: CYP3A4 (Homo sapiens (Human))
- Sequence (P08684 whole entry): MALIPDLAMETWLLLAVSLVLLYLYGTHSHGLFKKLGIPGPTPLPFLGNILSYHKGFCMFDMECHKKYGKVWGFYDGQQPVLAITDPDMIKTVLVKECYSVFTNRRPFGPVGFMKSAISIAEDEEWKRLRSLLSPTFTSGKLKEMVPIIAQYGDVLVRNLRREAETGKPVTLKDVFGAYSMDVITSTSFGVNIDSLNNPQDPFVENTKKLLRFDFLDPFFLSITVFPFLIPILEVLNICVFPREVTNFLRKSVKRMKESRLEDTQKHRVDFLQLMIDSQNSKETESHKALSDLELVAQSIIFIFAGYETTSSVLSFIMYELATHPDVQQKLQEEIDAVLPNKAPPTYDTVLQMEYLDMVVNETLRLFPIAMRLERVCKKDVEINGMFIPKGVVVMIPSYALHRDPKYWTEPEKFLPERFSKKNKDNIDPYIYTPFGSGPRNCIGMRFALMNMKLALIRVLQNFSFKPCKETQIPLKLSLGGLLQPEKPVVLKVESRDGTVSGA
- experiment summary: Inhibition of the midazolam metabolite site of CYP3A4 in human liver microsomes
- Assay type: in vitro ADME
- condition description: probe substrate midazolam
pIC50: −log10 of the molar value.
quantity name: pIC50

compound="CCCCOc1nc(N)c2cnn(Cc3cccc(CN4CCCCC4)c3)c2n1 [Example 6]" quantity_name=pIC50 reading=5.00
compound="CCCCOc1nc(N)c2cnn(Cc3ccc(CN4CCCCC4)cc3)c2n1 [Example 3]" quantity_name=pIC50 reading=5.15
compound="CCCCOc1nc(N)c2cnn(Cc3cccc(CN4CCCC4)c3)c2n1 [Example 4]" quantity_name=pIC50 reading=4.96

a = CCCCOc1nc(N)c2cnn(Cc3ccc(CN4CCC4)cc3)c2n1 [Example 2]
b = CCCCC(=O)c1nc(N)c2cnn(Cc3ccc(CN4CCCC4)cc3)c2n1 [Example 12]
Prompt: Which of these two has the smaller recorded pIC50: a or b ? Answer by stating the label of the chosen item.
Response: b

---

- assayed system: human TLR8 (Homo sapiens (Human), UniProt Q9NR97)
- Sequence (Q9NR97 27-1041): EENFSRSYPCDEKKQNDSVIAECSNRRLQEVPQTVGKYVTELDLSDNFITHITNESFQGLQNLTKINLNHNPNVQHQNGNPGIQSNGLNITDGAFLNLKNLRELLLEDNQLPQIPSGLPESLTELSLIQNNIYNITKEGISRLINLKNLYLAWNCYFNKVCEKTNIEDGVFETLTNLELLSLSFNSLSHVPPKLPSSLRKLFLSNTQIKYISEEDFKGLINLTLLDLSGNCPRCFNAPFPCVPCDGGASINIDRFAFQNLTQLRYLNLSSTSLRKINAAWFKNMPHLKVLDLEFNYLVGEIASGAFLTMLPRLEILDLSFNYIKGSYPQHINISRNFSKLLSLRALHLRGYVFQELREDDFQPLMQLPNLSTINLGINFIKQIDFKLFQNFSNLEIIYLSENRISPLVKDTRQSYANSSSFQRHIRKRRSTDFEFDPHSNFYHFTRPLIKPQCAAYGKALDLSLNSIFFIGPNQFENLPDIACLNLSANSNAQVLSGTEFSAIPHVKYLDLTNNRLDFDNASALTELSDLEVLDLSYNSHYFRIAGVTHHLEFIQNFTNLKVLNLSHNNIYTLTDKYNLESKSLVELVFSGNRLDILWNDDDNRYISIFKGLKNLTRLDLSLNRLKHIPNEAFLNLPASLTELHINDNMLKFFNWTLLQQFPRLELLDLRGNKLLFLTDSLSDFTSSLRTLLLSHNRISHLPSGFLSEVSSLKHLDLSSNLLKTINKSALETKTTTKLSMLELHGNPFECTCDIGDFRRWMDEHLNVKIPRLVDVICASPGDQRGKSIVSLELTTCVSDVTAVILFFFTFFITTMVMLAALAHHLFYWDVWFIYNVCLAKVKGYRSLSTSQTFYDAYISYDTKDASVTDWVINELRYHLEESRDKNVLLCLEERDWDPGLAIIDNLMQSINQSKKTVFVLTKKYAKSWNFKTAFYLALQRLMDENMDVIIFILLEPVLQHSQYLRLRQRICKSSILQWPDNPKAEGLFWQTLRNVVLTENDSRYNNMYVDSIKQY
- experiment summary: Agonistic activity on human TLR8 in HEK-Blue hTLR8 stably transfected cells
- condition description: OD 620 nm
pEC50: −log10 of the molar value.
quantity name: pEC50

Prompt: Read off the recorded pEC50 for CCCCC(=O)c1nc(N)c2cnn(Cc3ccc(CN4CCCC4)cc3)c2n1 [Example 12]
Response: < 4.52

Prompt: Read off the recorded pEC50 for CCCCNc1nc(N)c2cnn(Cc3ccc(CN4CCCC4)cc3)c2n1 [Example 10]
Response: < 4.52

Prompt: Read off the recorded pEC50 for CCCCOc1nc(N)c2cnn(Cc3ccc(CN4CCC4)cc3)c2n1 [Example 2]
Response: < 4.54

---

pEC50: recorded values
- assayed system: UniProtKB Q9NR97
- experiment summary: Agonistic activity on human TLR8 in HEK-Blue hTLR8 stably transfected cells
- Assay type: cell-based
- condition description: OD 620 nm
pEC50: −log10 of the molar value.

Below, each entry is followed by its recorded pEC50 result.
compound="COCC(C)Oc1nc(N)c2cnn(Cc3ccc(CN4CCCC4)cc3)c2n1 (stereo not shown)" quantity_name=pEC50 reading="< 4.52"
compound=CCCCOc1nc(N)c2cnn(Cc3ccc(CN4CCCCC4)cc3)c2n1 quantity_name=pEC50 reading="< 4.62"
compound=CCCNC(=O)c1nc(N)c2cnn(Cc3ccc(CN4CCCC4)cc3)c2n1 quantity_name=pEC50 reading="< 4.52"
compound=COCCOc1nc(N)c2cnn(Cc3ccc(CN4CCCC4)cc3)c2n1 quantity_name=pEC50 reading="< 4.52"
compound=CCCCOc1nc(N)c2cnn(Cc3ccc(CN4CCCC4)cc3)c2n1 quantity_name=pEC50 reading="< 4.52"

Prompt: Read off the recorded pEC50 for "CCCCOc1nc(N)c2cnn(Cc3cccc(CN4CCCC4)c3)c2n1"
Response: < 4.52

Prompt: Read off the recorded pEC50 for "CCCCOc1nc(N)c2cnn(Cc3cccc(CN4CCCCC4)c3)c2n1"
Response: < 5.22
